experimentalSystem: Angiopoietin-1 receptor (Homo sapiens);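 note: reported value is the mean TIE2 inhibition from the GSK PKIS dataset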
testContext: at 1 µM
The following molecules are shown together with reported inhibition values.
quantityName: inhibition (%)

smiles | unitDescriptor | reportedMeasurement
CNC(=O)c1sc(-n2cnc3cc(OC)c(OC)cc32)cc1OCc1ccccc1C(F)(F)F | % | 9.86
CCOc1ccc2c(-c3ccnc(Nc4cc(OC)cc(C(F)(F)F)c4)n3)cnn2n1 | % | 13.5
O=C(O[C@H]1CN[C@H](C#Cc2cc3ncnc(Nc4ccc5c(cnn5Cc5ccccc5)c4)c3s2)C1)N1CCOCC1 | % | 5.18
COC(=O)Nc1nc2ccc(Oc3ccc(NC(=O)Nc4cc(C(F)(F)F)ccc4F)cc3)cc2s1 | % | 78
CN(C)CCNC(=O)Nc1ccc(N(C)c2ccnc(Nc3ccc(CS(C)(=O)=O)cc3)n2)cc1 | % | 12.6

###

experimentalSystem: Serine/threonine-protein kinase pim-2 (Homo sapiens);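 note: each value is a mean of the inhibition measurements against the kinase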
testContext: at 1 µM
The following compounds are shown together with reported inhibition values.
quantityName: inhibition (%)

compound | experimentalSystem | quantityName | reportedMeasurement
Cn1c(-c2nonc2N)nc2cnccc21 | Serine/threonine-protein kinase pim-2 (Homo sapiens) | inhibition | 1.87
N#Cc1cccc(Nc2ncc(-c3ccccc3)o2)c1 | Serine/threonine-protein kinase pim-2 (Homo sapiens) | inhibition | 0.47
N#Cc1ccc2c(-c3ccnc(NC4CC4)n3)c(-c3ccc(F)cc3)nn2c1 | Serine/threonine-protein kinase pim-2 (Homo sapiens) | inhibition | 0.72
CC1=C(C(=O)Nc2ccc3[nH]ncc3c2)C(c2ccc(F)cc2)N=C(c2ccc(C(F)(F)F)nc2)N1 (stereo not given) | Serine/threonine-protein kinase pim-2 (Homo sapiens) | inhibition | 0.66
O=C(O[C@H]1CN[C@H](C#Cc2cc3ncnc(Nc4ccc5c(ccn5Cc5cc(F)ccc5F)c4)c3s2)C1)N1CCOCC1 | Serine/threonine-protein kinase pim-2 (Homo sapiens) | inhibition | 0.17
CNC(=O)c1cncc(/C=C/c2ccccc2C)c1 | Serine/threonine-protein kinase pim-2 (Homo sapiens) | inhibition | 1.06
COc1cc(N2CCN(C(C)C)CC2)ccc1Nc1nc(Nc2cccc3ncccc23)c2cc[nH]c2n1 | Serine/threonine-protein kinase pim-2 (Homo sapiens) | inhibition | 0.36
Cc1c2ccc(N(C)c3ccnc(Nc4cccc(S(N)(=O)=O)c4)n3)cc2nn1C | Serine/threonine-protein kinase pim-2 (Homo sapiens) | inhibition | -3.16
CCOc1ccc2c(-c3ccnc(Nc4cc(OC)cc(C(F)(F)F)c4)n3)cnn2n1 | Serine/threonine-protein kinase pim-2 (Homo sapiens) | inhibition | -0.11
CC1(C)CC(n2cnc(-c3ccc(F)cc3)c2-c2ccnc(N)n2)CC(C)(C)N1 | Serine/threonine-protein kinase pim-2 (Homo sapiens) | inhibition | 0.96

###

experimentalSystem: Sphingosine kinase 1 (Homo sapiens);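 note: mean SPHK1 inhibition value reported from the GSK PKIS kinase panel screen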
testContext: at 1 µM
The following compounds are shown together with reported inhibition values.

smiles | unitDescriptor | inhibition
Cc1ccc(-c2cc3c(NC(=O)C4CC4)ncnc3o2)cc1 | % | -8.41
NS(=O)(=O)c1ccc(N/N=C2\C(=O)Nc3cccc(CCc4ccncc4)c32)cc1 | % | 3.16
Cc1c2ccc(N(C)c3ccnc(Nc4cccc(S(N)(=O)=O)c4)n3)cc2nn1C | % | 1.41
COc1cc2c(cc1Nc1nc(Nc3cccc(F)c3C(N)=O)c3cc[nH]c3n1)N(C(=O)CN1CCN(C(C)C)CC1)CC2 | % | 1.21
Cc1cc(O)cc(C)c1/C=C/c1cncc(C(N)=O)c1 | % | -2.84
COC(=O)Nc1nc2cc(Oc3ccc(NC(=O)Nc4ccccc4)cc3)ccc2[nH]1 | % | 3.1
c1ccc(-c2n[nH]cc2-c2ccnc(-c3ccc(OCCn4ccnc4)cc3)c2)nc1 | % | -1.64
COc1ccc2ncn(-c3cc(O[C@H](C)c4ccccc4C(F)(F)F)c(C(N)=O)s3)c2c1 | % | 2.4
CN(c1ccc(NC(=O)NCCN2CCOCC2)cc1)c1ccnc(Nc2ccc(CS(C)(=O)=O)cc2)n1 | % | 7.75
COc1cc(Nc2ncc(-c3ccccc3)o2)cc(OC)c1 | % | 2.45

The values you see were collected from ChEMBL document CHEMBL1961873.
